Just for reference, ChEMBL document CHEMBL1649374 is where these values come from.

Could you please report measured Activity for the items listed next?
molecular target: UniProt:Q12809; experiment: Inhibition of human ERG expressed in HEK293 cells after 3 hrs by nonradioactive rubidium efflux assay; assay type: cell-based; conditions: hek293, 3 h
Sequence (Q12809 whole entry): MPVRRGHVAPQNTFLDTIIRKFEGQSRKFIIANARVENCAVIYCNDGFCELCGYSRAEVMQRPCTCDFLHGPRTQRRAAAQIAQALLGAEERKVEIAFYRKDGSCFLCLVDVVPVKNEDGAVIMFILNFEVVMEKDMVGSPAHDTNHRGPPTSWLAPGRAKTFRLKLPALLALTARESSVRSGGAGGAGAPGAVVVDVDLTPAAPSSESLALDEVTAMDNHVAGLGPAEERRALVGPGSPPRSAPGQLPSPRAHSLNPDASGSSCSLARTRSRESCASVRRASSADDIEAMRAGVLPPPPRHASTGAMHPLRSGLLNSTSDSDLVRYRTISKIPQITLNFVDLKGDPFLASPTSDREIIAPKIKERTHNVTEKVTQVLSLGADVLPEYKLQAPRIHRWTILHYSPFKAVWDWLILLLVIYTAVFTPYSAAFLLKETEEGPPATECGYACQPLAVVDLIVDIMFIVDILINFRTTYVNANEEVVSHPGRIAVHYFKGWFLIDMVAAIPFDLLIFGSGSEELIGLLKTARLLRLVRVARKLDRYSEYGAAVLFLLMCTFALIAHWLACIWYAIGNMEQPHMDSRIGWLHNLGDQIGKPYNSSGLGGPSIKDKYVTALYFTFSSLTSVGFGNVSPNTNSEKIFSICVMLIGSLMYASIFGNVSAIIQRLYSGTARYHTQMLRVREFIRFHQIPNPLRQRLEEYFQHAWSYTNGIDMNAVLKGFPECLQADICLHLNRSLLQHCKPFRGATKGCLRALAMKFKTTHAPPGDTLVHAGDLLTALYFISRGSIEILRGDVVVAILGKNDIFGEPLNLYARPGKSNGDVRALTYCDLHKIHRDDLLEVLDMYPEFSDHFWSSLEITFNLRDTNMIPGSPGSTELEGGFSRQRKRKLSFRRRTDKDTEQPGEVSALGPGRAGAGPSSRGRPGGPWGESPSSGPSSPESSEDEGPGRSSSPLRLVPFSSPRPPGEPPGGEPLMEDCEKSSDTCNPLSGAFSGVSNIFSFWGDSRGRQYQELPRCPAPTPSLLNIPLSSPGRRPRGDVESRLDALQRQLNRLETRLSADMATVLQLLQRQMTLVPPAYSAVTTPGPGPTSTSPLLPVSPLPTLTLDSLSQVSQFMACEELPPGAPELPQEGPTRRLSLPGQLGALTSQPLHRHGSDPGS
Reply with just the number (in µM).

[in] Provide only the value of recorded Activity for Cc1csc2c(=O)n(Cc3ccccc3C#N)c(N3CCC[C@@H](N)C3)nc12
[out] 203.5

[in] Tell me its Activity given Cc1csc2nc(N3CCC[C@@H](N)C3)n(Cc3ccccc3C#N)c(=O)c12 as the entry.
[out] 376.3

[in] Given N#Cc1ccccc1Cn1c(N2CCC[C@@H](N)C2)nc2sccc2c1=O , respond with its Activity.
[out] 484.6

[in] Return reported Activity. Input compound: N#Cc1ccccc1Cn1c(N2CCC[C@@H](N)C2)nc2ccsc2c1=O
[out] 517.4

* * *

assay: Oral bioavailability in Sprague-Dawley rat at 20 mg/kg; type: ADME, organism-based; conditions: in vivo
readout-name: bioavailability (%)
Respond with the bare value in %.

[in] Return bioavailability (reported value) for this molecule: N#Cc1ccccc1Cn1c(N2CCC[C@@H](N)C2)nc2ccsc2c1=O
[out] 23.7

* * *

assay: Plasma clearance in Beagle dog at 10 mg/kg, iv; format: ADME, organism-based, Canis lupus familiaris; parameters: dose 10 mg/kg, route intravenous
readout-name: clearance (mL/min/kg)
Please reply with the bare figure in mL/min/kg and do not write the unit itself.

[in] Entry N#Cc1ccccc1Cn1c(N2CCC[C@@H](N)C2)nc2ccsc2c1=O needs its clearance filled in; supply it.
[out] 22.2

* * *

Consider the following compounds; for each one, report its IC50.

[in] Specify IC50 for Cc1csc2c(=O)n(Cc3ccccc3C#N)c(N3CCC[C@@H](N)C3)nc12 , system UniProt Q6V1X1.
Sequence (Q6V1X1 whole entry): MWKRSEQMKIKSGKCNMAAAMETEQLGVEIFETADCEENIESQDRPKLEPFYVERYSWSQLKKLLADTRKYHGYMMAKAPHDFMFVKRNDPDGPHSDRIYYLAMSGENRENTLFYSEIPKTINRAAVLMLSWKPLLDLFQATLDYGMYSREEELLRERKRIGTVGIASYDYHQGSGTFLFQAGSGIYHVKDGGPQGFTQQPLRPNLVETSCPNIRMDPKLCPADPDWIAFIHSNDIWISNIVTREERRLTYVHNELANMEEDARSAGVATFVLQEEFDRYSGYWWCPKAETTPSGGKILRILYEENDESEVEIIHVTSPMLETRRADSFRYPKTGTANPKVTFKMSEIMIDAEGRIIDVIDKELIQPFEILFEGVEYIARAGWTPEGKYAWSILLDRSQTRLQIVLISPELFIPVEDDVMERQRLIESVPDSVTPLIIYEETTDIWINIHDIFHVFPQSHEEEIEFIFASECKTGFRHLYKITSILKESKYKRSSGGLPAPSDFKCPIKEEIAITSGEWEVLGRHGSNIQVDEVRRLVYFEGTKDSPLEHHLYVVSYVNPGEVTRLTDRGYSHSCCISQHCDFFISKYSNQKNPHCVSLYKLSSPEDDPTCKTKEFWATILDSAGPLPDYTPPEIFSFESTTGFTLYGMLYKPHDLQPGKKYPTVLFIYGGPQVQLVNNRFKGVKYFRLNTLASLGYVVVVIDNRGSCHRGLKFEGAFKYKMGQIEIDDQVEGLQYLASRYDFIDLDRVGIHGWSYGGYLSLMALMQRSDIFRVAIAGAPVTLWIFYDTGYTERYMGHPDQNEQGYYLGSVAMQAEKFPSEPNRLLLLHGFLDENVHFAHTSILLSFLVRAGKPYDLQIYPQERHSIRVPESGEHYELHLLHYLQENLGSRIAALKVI
[out] > 25 µM

[in] Supply IC50 measured with UniProt Q6V1X1 for N#Cc1ccccc1Cn1c(N2CCC[C@@H](N)C2)nc2scc(C(F)(F)F)c2c1=O .
[out] > 25 µM

[in] Give reported IC50 for N#Cc1ccccc1Cn1c(N2CCC[C@@H](N)C2)nc2ccsc2c1=O (UniProt Q6V1X1)
[out] > 25 µM

* * *

assay: Plasma clearance in Sprague-Dawley rat at 10 mg/kg, iv; type: ADME, organism-based; set-up: dose 10 mg/kg, route intravenous
readout-name: clearance (mL/min/kg)
// note: answer is a bare numeric in mL/min/kg

[in] Determine from records and report clearance for N#Cc1ccccc1Cn1c(N2CCC[C@@H](N)C2)nc2ccsc2c1=O
[out] 116

* * *

experiment: Half life in Beagle dog at 10 mg/kg, iv; format: ADME, organism-based, Canis lupus familiaris; design: dose 10 mg/kg, route intravenous; details: in vivo
readout-name: half-life

[in] Indicate its recorded half-life; the molecule in question is N#Cc1ccccc1Cn1c(N2CCC[C@@H](N)C2)nc2ccsc2c1=O
[out] 10.1 h

* * *

experiment: Mean residence time in Beagle dog at 20 mg/kg, po; assay type: ADME, organism-based, Canis lupus familiaris; design: dose 20 mg/kg, route oral; conditions: in vivo
readout-name: MRT (h)
The response must be a number in h with no trailing unit.

[in] Please list MRT recorded for the compound N#Cc1ccccc1Cn1c(N2CCC[C@@H](N)C2)nc2ccsc2c1=O
[out] 9
